System: KM12 colon
Test method notes: NCI-60 one-dose screen, 48 h (100 = growth as untreated, 0 = no growth, -100 = all killed)
Experimental setup: 10 µM unless noted
The panel holds about 83,000 compounds, 20% with a hit somewhere; the sample as a whole holds those more often.
Recorded metric: growth (%)
// return numeric value only (unit: %, not printed)

For orientation, consider the following solved cases.
(Q) Which measured growth value corresponds to CNC=O ?
(A) 95.5

(Q) Which measured growth value corresponds to C=C1c2c(C)nn(-c3ccc(O)cc3)c2N(C)C23C[C@@H]1C1(C)c4c(C)nn(-c5ccc(O)cc5)c4N(C)C(C)(C[C@H]12)C3 (stereo partly specified) ?
(A) 21.2

(Q) Which measured growth value corresponds to Cn1ccc(Cc2cnc(N)s2)n1 ?
(A) 103

(Q) Which measured growth value corresponds to CCCCCOC(=O)c1ccc(NC(=O)CNCC(C)C)cc1 ?
(A) 104

(Q) Which measured growth value corresponds to N#C/C(=C\c1ccc2c(c1)OCO2)n1nnc2ccccc21 ?
(A) -16.2

New cases:
(Q) Which measured growth value corresponds to CSc1nc2sc3cc(Cl)ccc3n2c(=N)c1C#N ?
(A) 19.8

* * *

Test system: IGROV1 ovarian
Test method notes: NCI-60 one-dose screen, 48 h (100 = growth as untreated, 0 = no growth, -100 = all killed)
Experimental setup: 10 µM unless noted
About 83,000 compounds went through this panel and 20% of them were active in at least one assay; those are over-represented in the sample as a whole.
Recorded metric: growth (%)
// return numeric value only (unit: %, not printed)

For orientation, consider the following solved cases.
(Q) Which measured growth value corresponds to O=C1C=CC(=Nc2cc(Br)c(O)c(Br)c2)C=C1 ?
(A) 72.1

(Q) Which measured growth value corresponds to N#Cc1c(N)nc2c(nnn2-c2cccc(C(F)(F)F)c2)c1N ?
(A) 81.1

(Q) Which measured growth value corresponds to COc1cc(C2CC(c3ccc(Nc4nc(Nc5ccc(F)cc5)nc(Nc5ccc(Cl)cc5)n4)cc3)=NN2C(C)=O)cc(OC)c1OC (stereo not given) ?
(A) 43.5

(Q) Which measured growth value corresponds to COc1cc(/C=C/C(=O)c2cccc(-n3cc(-c4ccc(Cl)cc4)[nH]c3=O)c2)cc(OC)c1OC ?
(A) 13.1

(Q) Which measured growth value corresponds to Cc1nc(Nc2cccc(NC(=O)Nc3ccc(Cl)cc3)c2)c2ccccc2n1 ?
(A) 102

New cases:
(Q) Which measured growth value corresponds to C=CC(=O)N[C@@H](Cc1ccc(-c2cc(Cl)cc(Cl)c2)cc1)[C@@H](O)[C@H](O)C(=O)O ?
(A) 105

(Q) Which measured growth value corresponds to CN1CCN(C2=C(Cl)C(=O)c3ccccc3C2=O)CC1 ?
(A) 60.7

(Q) Which measured growth value corresponds to COc1cc2c(cc1OC)-c1ccc3cc4c(cc3c1N(CCCN1CCCCC1)C2)OCO4 ?
(A) 33.7

(Q) Which measured growth value corresponds to O=c1ccn(C2OC(F)(CO)C(O)C2F)c(=O)[nH]1 (stereo not given) ?
(A) 112

* * *

System: SN12C renal
Test method notes: NCI-60 one-dose screen, 48 h (100 = growth as untreated, 0 = no growth, -100 = all killed)
Experimental setup: 10 µM unless noted
Compounds without any hit were thinned out: in the full panel of roughly 83,000, 20% have a hit.
The class of a record is decided solely by its measured growth; consult lowest (below 80%), middle (80% to below 90%), highest (90% or more)

Reference set, count: 5
(Q) Which growth category applies to CNC(=O)NCC1OC(n2cnc3c(NC(=O)Nc4ccccc4)ncnc32)C2OC(C)(C)OC12 (stereo not given) here?
(A) highest

(Q) Which growth category applies to CCOC(=O)N1CCc2c(sc3c2C(=O)N[C@H](c2ccc(OC)cc2)N3)C1 here?
(A) middle

(Q) Which growth category applies to CCCCNC(=O)NS(=O)(=O)c1ccc(N2N=C(c3ccc(C)cc3C)CC2c2ccc(N(C)C)cc2)cc1 (stereo not given) here?
(A) lowest

(Q) Which growth category applies to COc1cc(-c2ccc(-c3ccc(C(=N)N)nc3)s2)cc(OC)c1OC here?
(A) lowest

(Q) Which growth category applies to O=C(Nc1ccccc1)c1sc(-c2cccc(C(F)(F)F)c2)cc1O here?
(A) middle

New cases:
(Q) Which growth category applies to Nc1nc(N)c(-c2ccc(Cl)cc2)c(/C=C/c2ccc([N+](=O)[O-])cc2)n1 here?
(A) highest

(Q) Which growth category applies to CCNCCNc1cc(-c2ccc(Cl)cc2)c(C#N)c2nc3ccccc3n12 here?
(A) lowest

(Q) Which growth category applies to CN(C)CCC(O)(Cc1ccccc1)c1ccccc1 (stereo not given) here?
(A) highest

(Q) Which growth category applies to COc1ccc(NC(=O)c2cccc(-c3cc(=O)c4c(O)c(OC)c(OC)cc4o3)c2)cc1 here?
(A) middle
